Reference source for all entries: PubChem BioAssay (NCI)

The following compounds are listed with their measured TGI values.
- Test system: MALME-3M melanoma
- Method: NCI tumour cell line growth inhibition, 48 h

Reference set, count: 2
>  <Compound>
COc1ccc(OC)c2sc(N3C(=O)/C(=C/c4ccc(Cl)cc4)N=C3c3ccccc3)nc12

>  <Value Measured>
> 100 µM

$$$$
>  <Compound>
CN(C)C=Nc1cccc2nsnc12

>  <Value Measured>
> 100 µM

$$$$

Now for a further compound.
# TGI (compound: Cc1ccc2nc(CN3CCCC(O)C3)cc(=O)n2c1 (stereo not drawn) ) is > 100 µM

====

- System: UACC-62 melanoma
- Method: NCI tumour cell line growth inhibition, 48 h
The following molecules are listed with their measured TGI values.

>  <Molecule>
O=C(/C=C/c1ccc([N+](=O)[O-])o1)N1CCN(Cc2ccccc2)CC1

>  <Value Measured>
20.6 µM

$$$$

# TGI (molecule: CC12OC(c3ccccc3)=CC(c3ccc(Cl)cc3)=C1C(c1ccccc1)=CC2=O (stereo not drawn) ) is > 100 µM

# TGI (molecule: CCOC(=O)C(SCCO)C(C(=O)OCC)n1cnc2c(N)ncnc21 (stereo not drawn) ) is 24.7 µM

# TGI (molecule: O=C(c1ccccc1)c1ccc2nc3n(c2c1)C(c1c(F)cccc1F)SC3 (stereo not drawn) ) is 21.3 µM

# TGI (molecule: COc1c2nc(CCl)[nH]c(=O)c2c(OC)c2nc(CCl)[nH]c(=O)c12 ) is > 100 µM

# TGI (molecule: Cc1oc2c(c1C)S(=O)(=O)C(C#N)C(c1ccccc1)N2 (stereo not drawn) ) is > 100 µM

====

- Test system: OVCAR-4 ovarian
- Method: NCI tumour cell line growth inhibition, 48 h
Property Name: TGI

Reference set, count: 5
>  <Compound>
COc1nc(C)nc2sc3c(c12)CCCC3

>  <TGI>
> 100 µM

$$$$
>  <Compound>
CC[C@](O)(CC(=O)O[C@H]1C(=O)O[C@@H]2C[C@H]3C(C)=CC(=O)[C@@H](O)[C@]3(C)[C@H]3[C@@]4(O)OC[C@]32[C@@H]1[C@@H](C)[C@H]4O)C(C)C

>  <TGI>
< 0.0144 µM

$$$$
>  <Compound>
CC(=O)N[C@H]1C=C[C@@H]2/C=C(C)/C=C/[C@@H](C)[C@H]([C@H](C)[C@H](O)[C@@H](C)NC(C)=O)OC(=O)/C=C/C=C(C)\C=C\[C@]2(C)C1

>  <TGI>
> 45 µM

$$$$
>  <Compound>
CCN(CC)CCC(=O)NC1c2ccc(Cl)cc2Oc2c(C)cccc21 (configuration not stated)

>  <TGI>
28.9 µM

$$$$
>  <Compound>
COC(=O)C1=C(O)C(C(=O)OC)[C@]2(O)[C@H](C(=O)OC)[C@H]1C[C@@H](c1ccc(F)cc1)[C@H]2C(=O)OC (some centres not stated)

>  <TGI>
> 100 µM

$$$$

# TGI (compound: CCC(Sc1cc(Cl)c(C)cc1S(=O)(=O)Nc1nc(N)nc(N(C)C)n1)C(=O)O (configuration not stated) ) is > 10 µM

# TGI (compound: ClCc1cccc(Cn2cnc3c(NC45CC6CC(CC(C6)C4)C5)ncnc32)c1 ) is 38.8 µM

# TGI (compound: O=C1CC(NC(=O)C(F)(F)F)c2c1csc2Br (configuration not stated) ) is > 100 µM

# TGI (compound: C=C1C(=O)C23CC1C[C@H](OC(C)=O)[C@H]2C1(C)C(OC(C)=O)C[C@H](O)C(C)(C)[C@H]1C(=O)[C@@H]3OC(C)=O (some centres not stated) ) is 16.3 µM

# TGI (compound: CCOC(=O)NNC(=O)C1CSC(c2ccccc2)N1C(C)=O (configuration not stated) ) is > 100 µM

# TGI (compound: CCN(CC)c1cc2c3c(c1)CCCN3CCC2 ) is > 10 µM

# TGI (compound: O=c1[nH]c(C23CC4CC(CC(C4)C2)C3)cc2c1c(=O)oc1ccccc12 ) is 14 µM
